- targetEntity: CYP3A4 (Homo sapiens)
- Sequence (P08684 whole entry): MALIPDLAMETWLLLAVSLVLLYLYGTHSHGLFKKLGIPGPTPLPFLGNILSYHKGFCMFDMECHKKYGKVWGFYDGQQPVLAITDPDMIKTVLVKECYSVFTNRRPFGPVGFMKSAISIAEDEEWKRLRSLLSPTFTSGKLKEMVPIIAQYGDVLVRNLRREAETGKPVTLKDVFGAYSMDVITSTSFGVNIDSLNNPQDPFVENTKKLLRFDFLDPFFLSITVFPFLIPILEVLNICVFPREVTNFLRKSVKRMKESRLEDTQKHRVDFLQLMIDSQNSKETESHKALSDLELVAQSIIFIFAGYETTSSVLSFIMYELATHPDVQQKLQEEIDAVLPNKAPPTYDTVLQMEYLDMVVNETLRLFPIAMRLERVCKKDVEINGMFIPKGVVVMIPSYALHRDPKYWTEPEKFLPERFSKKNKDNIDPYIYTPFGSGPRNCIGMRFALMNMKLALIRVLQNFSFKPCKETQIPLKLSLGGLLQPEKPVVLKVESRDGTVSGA
- measurementDescription: Determination of IC50 against CYP3A4 by measurement of inhibition of testosterone metabolism (human liver microsomes, 6-β-OH-testosterone by LC-MS/MS)
- Type: biochemical
- Parameters: 0.1 mg/mL human liver microsomes
- conditionsUsed: read-out: IC50 (Testo.)
Assign IC50 to each entry below.

Q: So what's the measured IC50 for this one? COc1cncc(NS(=O)(=O)c2ccccc2C(=O)NCCO)c1
Result: > 750 nM

Q: Endpoint output: IC50 of CNC(=O)c1ccc(CNC(=O)c2ccccc2S(=O)(=O)Nc2cccnc2)cc1 . Value?
Result: < 3 nM

Q: Which IC50 is reported for this compound? CC(C)(CN1CCCCC1)NC(=O)c1ccccc1S(=O)(=O)Nc1cccnc1
Result: > 750 nM
